Origin of values: patent US7432244

target: IGF-1 (human, UniProt P05019); assay: competition, IGF-1 phage vs IGFBP-1
Sequence (P05019 49-118): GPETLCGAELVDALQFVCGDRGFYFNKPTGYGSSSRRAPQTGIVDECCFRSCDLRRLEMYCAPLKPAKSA
pIC50: −log10 of the molar value. Bridge positions count the residues as written; N and C are the ends. Ends that are not written are not given here.
Result Type: pIC50

MDCLASVEALKWCMYG (disulfide 3-13 (inferred)) [F1-2]
4.81

(a) FECLTSVEALRGCMYG (disulfide 3-13 (inferred)) [F1-3]
(b) RNCFESVAALRRCMYG (disulfide 3-13 (inferred)) [F1-1]
## Input Which item exceeds the other in pIC50, a or b ? Pick one; state its label.
## Output b
(b: 5.85, a: 4.93)
